Listed here: items and their measured protein stability index.
B1: C1orf137 (parent)
chain: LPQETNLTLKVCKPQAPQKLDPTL

variants of: B1; assay: protein stability index of a GFP-peptide fusion (GPS, HEK-293T) (PSI 1-6); higher = more stable; settings: c terminus: a fixed tail appended;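 further: lentivirally expressed fusions sorted by FACS into six bins by GFP to DsRed ratio, PSI derived from sequencing read proportions per bin multiplied by bin number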
ASSAY ENDPOINT: protein stability index

# VARIANT CODE, ASSAY ENDPOINT, NUMERIC VALUE
measured = [
    ("P2S", "protein stability index", 2.8),
    ("N6F", "protein stability index", 3.36),
    ("Q18M", "protein stability index", 3.28),
    ("Q18N", "protein stability index", 3.52),
    ("C12A", "protein stability index", 5.06),
    ("K10G", "protein stability index", 3.78),
    ("P22S", "protein stability index", 2.87),
    ("K10Q", "protein stability index", 3.65),
    ("C12S", "protein stability index", 4.07),
    ("K13C", "protein stability index", 3.24),
    ("L7I", "protein stability index", 3.4),
    ("D21S", "protein stability index", 3.85),
    ("Q3V", "protein stability index", 3.73),
    ("E4P", "protein stability index", 4.22),
    ("K13P", "protein stability index", 4.43),
    ("P17L", "protein stability index", 3.07),
    ("N6K", "protein stability index", 3.27),
    ("A16K", "protein stability index", 4.15),
    ("K19V", "protein stability index", 4.06),
    ("N6M", "protein stability index", 3.22),
    ("K10Y", "protein stability index", 2.98),
    ("L7G", "protein stability index", 4.48),
    ("N6G", "protein stability index", 4.6),
    ("N6W", "protein stability index", 3.2),
    ("E4I", "protein stability index", 2.51),
    ("L24E", "protein stability index", 4.8),
    ("L9Y", "protein stability index", 4.35),
    ("P22D", "protein stability index", 4.38),
    ("L1E", "protein stability index", 4.8),
    ("E4M", "protein stability index", 2.82),
    ("Q18S", "protein stability index", 3.58),
    ("P22N", "protein stability index", 3.38),
    ("L20T", "protein stability index", 4.5),
    ("L20R", "protein stability index", 4.42),
    ("T8S", "protein stability index", 4.3),
    ("T8G", "protein stability index", 4.55),
    ("K13D", "protein stability index", 4.88),
    ("L7A", "protein stability index", 4.25),
    ("C12N", "protein stability index", 4.31),
    ("V11M", "protein stability index", 3.77),
    ("N6Q", "protein stability index", 3.94),
    ("N6A", "protein stability index", 3.88),
    ("L1C", "protein stability index", 4),
    ("Q15T", "protein stability index", 4.08),
    ("P14R", "protein stability index", 4.27),
    ("D21E", "protein stability index", 3.98),
]
